SYSTEM TESTED: 5-hydroxytryptamine receptor 6 (Homo sapiens)
RUN DESCRIPTION: Binding affinity to human cloned 5-HT6 receptor in HeLa cells using [3H]- LSD as radioligand
Type: cell-based
ASSAY ENDPOINT: Ki

RECORD SMILES | VALUE
O=S(=O)(Nc1ccc2nccc(N3CCNCC3)c2c1)c1ccc(-c2ccccc2)cc1 | 0.501 nM
Cc1c(S(=O)(=O)Nc2ccc3nccc(N4CCNCC4)c3c2)sc2ccc(Cl)cc12 | 2 nM
Cc1cc(N2CCNCC2)c2cc(NS(=O)(=O)c3sc4ccc(Cl)cc4c3C)ccc2n1 | 1.26 nM
Cc1sc2ccc(Cl)cc2c1S(=O)(=O)Nc1ccc2nccc(N3CCNCC3)c2c1 | 1 nM
O=S(=O)(Nc1ccc2nccc(N3CCNCC3)c2c1)c1ccc2c(Cl)cccc2c1 | 1 nM
Cc1c(S(=O)(=O)Nc2ccc3nccc(N4CCN[C@@H](C)C4)c3c2)sc2ccc(Cl)cc12 | 1.26 nM
Cc1c(S(=O)(=O)Nc2ccc3nccc(N4CCN(C)CC4)c3c2)sc2ccc(Cl)cc12 | 1 nM

input: Entry under review: `CCc1c(S(=O)(=O)Nc2ccc3nccc(N4CCNCC4)c3c2)sc2ccc(Cl)cc12` . Reported Ki?
output: 1.26 nM

###

RUN DESCRIPTION: Selectivity ratio as antilogarithm of smallest difference between the pKi value at 5-HT6 receptor and range of comparator receptors
ASSAY ENDPOINT: Selectivity ratio
One number for each entry.

Consider the following illustrative entries.
RECORD SMILES | Selectivity ratio
Cc1cnc2ccc(NS(=O)(=O)c3sc4ccc(Cl)cc4c3C)cc2c1N1CCNCC1 | 100
Cc1cc(S(=O)(=O)Nc2ccc3nccc(N4CCNCC4)c3c2)c(C)cc1Cl | 500
Cc1c(S(=O)(=O)Nc2ccc3nccc(N4CCN[C@@H](C)C4)c3c2)sc2ccc(Cl)cc12 | 320
Cc1c(S(=O)(=O)Nc2ccc3nccc(N4C[C@@H](C)N[C@@H](C)C4)c3c2)sc2ccc(Cl)cc12 | 160
Cc1sc2cc(Cl)cc(Cl)c2c1S(=O)(=O)Nc1ccc2nccc(N3CCNCC3)c2c1 | 40
Cc1sc2c(Cl)cc(Cl)cc2c1S(=O)(=O)Nc1ccc2nccc(N3CCNCC3)c2c1 | 200
O=S(=O)(Nc1ccc2nccc(N3CCNCC3)c2c1)c1ccc(-c2ccccc2)cc1 | 320
O=S(=O)(Nc1ccc2nccc(N3CCNCC3)c2c1)c1cccc2c(Cl)cccc12 | 80

Dear reader, for each entry below, please note its Selectivity ratio.
1. O=S(=O)(Nc1ccc2nccc(N3CCNCC3)c2c1)c1ccc(I)cc1
2. CC(C)c1c(S(=O)(=O)Nc2ccc3nccc(N4CCNCC4)c3c2)sc2ccc(Cl)cc12
3. Cc1cc(N2CCNCC2)c2cc(NS(=O)(=O)c3sc4ccc(Cl)cc4c3C)ccc2n1
4. Cc1c(S(=O)(=O)Nc2ccc3nccc(N4CCNCC4)c3c2)sc2ccc(Cl)cc12
5. Cc1c(S(=O)(=O)Nc2ccc3nccc(N4CCN5CCC[C@H]5C4)c3c2)sc2ccc(Cl)cc12
6. CC(C)(C)c1ccc(S(=O)(=O)Nc2ccc3nccc(N4CCNCC4)c3c2)cc1

output:
1. 100
2. 160
3. 250
4. 320
5. 130
6. 1260

###

SYSTEM TESTED: 5-hydroxytryptamine receptor 6 (Homo sapiens, UniProt P50406)
Sequence (P50406 whole entry): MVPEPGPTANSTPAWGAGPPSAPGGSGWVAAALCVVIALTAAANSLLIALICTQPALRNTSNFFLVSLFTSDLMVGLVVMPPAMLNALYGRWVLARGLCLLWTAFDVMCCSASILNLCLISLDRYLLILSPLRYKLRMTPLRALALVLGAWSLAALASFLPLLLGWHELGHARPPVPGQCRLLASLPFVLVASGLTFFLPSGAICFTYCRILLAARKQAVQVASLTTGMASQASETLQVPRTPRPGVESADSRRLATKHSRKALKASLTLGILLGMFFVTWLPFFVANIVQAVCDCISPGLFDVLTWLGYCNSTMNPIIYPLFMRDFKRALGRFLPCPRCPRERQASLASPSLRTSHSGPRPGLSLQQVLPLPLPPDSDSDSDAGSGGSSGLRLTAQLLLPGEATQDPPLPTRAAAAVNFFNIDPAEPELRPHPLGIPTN
RUN DESCRIPTION: Binding affinity to human cloned 5-hydroxytryptamine 6 receptor in HeLa cells using [3H]- LSD as radioligand
Format: cell-based
ASSAY ENDPOINT: Ki (nM)
Numbers only, in nM.

input: Entry under review: `CC(C)(C)c1ccc(S(=O)(=O)Nc2ccc3nccc(N4CCNCC4)c3c2)cc1` . Reported Ki?
output: 0.631

###

SYSTEM TESTED: 5-hydroxytryptamine receptor 2B (Homo sapiens, UniProt P41595)
Sequence (P41595 whole entry): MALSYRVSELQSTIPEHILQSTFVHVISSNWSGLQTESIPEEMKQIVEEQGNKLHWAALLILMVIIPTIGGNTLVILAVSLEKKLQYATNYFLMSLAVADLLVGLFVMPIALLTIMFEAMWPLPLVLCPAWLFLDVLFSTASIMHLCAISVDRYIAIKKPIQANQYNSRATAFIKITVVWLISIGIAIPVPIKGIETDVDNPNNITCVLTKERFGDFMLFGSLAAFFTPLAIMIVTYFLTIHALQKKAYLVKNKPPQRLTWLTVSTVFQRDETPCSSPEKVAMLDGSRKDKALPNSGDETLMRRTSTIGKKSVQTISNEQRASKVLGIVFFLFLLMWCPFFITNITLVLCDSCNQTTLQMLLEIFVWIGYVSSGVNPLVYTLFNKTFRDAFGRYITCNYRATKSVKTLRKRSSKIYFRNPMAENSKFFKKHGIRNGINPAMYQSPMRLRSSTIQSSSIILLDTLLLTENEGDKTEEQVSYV
RUN DESCRIPTION: Binding affinity to human cloned 5-HT2B receptor in HEK 293 cells using [3H]- -5-HT as radioligand
ASSAY ENDPOINT: Ki

Consider the following illustrative entries.
RECORD SMILES | ASSAY ENDPOINT | VALUE
O=S(=O)(Nc1ccc2nccc(N3CCNCC3)c2c1)c1ccc(-c2ccccc2)cc1 | Ki | > 7.94 µM
Cc1c(S(=O)(=O)Nc2ccc3nccc(N4CCNCC4)c3c2)sc2ccc(Cl)cc12 | Ki | > 5.01 µM
CC(C)(C)c1ccc(S(=O)(=O)Nc2ccc3nccc(N4CCNCC4)c3c2)cc1 | Ki | > 5.01 µM

Now for the molecule whose Ki we want.
input: Query the reported Ki for 5-hydroxytryptamine receptor 2B (Homo sapiens, UniProt P41595); item: `O=S(=O)(Nc1ccc2nccc(N3CCNCC3)c2c1)c1ccc2c(Cl)cccc2c1`
output: > 5.01 µM

###

SYSTEM TESTED: 5-hydroxytryptamine receptor 1D (Homo sapiens, UniProt P28221)
Sequence (P28221 whole entry): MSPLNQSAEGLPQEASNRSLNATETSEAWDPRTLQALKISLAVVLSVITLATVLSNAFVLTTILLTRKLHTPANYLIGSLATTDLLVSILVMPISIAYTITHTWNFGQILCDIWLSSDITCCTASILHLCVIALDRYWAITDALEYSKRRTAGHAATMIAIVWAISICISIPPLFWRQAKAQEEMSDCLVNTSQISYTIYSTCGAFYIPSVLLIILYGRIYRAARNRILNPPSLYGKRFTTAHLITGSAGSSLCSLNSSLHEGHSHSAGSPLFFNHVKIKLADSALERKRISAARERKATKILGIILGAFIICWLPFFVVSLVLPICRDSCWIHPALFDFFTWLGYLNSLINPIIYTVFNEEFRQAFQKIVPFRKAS
RUN DESCRIPTION: Binding affinity to human cloned 5-hydroxytryptamine 1D receptor in CHO cells using [3H]5-HT as radioligand
Consider the following molecules; for each one, report its pKi.
Numbers only, as −log10 of the molar value.

Consider the following illustrative entries.
RECORD SMILES | SYSTEM TESTED | pKi
Cc1c(S(=O)(=O)Nc2ccc3nccc(N4CCNCC4)c3c2)sc2ccc(Cl)cc12 | 5-hydroxytryptamine receptor 1D (Homo sapiens, UniProt P28221) | 6.20
CC(C)(C)c1ccc(S(=O)(=O)Nc2ccc3nccc(N4CCNCC4)c3c2)cc1 | 5-hydroxytryptamine receptor 1D (Homo sapiens, UniProt P28221) | 5.90
Cc1c(S(=O)(=O)Nc2ccc3nccc(N4CCN[C@@H](C)C4)c3c2)sc2ccc(Cl)cc12 | 5-hydroxytryptamine receptor 1D (Homo sapiens, UniProt P28221) | 6.40

Dear reader, for each entry below, please note its pKi.
1. O=S(=O)(Nc1ccc2nccc(N3CCNCC3)c2c1)c1ccc(-c2ccccc2)cc1
2. Cc1cc(N2CCNCC2)c2cc(NS(=O)(=O)c3sc4ccc(Cl)cc4c3C)ccc2n1
3. Cc1sc2ccc(Cl)cc2c1S(=O)(=O)Nc1ccc2nccc(N3CCNCC3)c2c1
4. CCc1c(S(=O)(=O)Nc2ccc3nccc(N4CCNCC4)c3c2)sc2ccc(Cl)cc12

output:
[6.80, 6.50, 6.40, 5.60]

Dear reader, for each entry below, please note its pKi.
1. Cc1c(S(=O)(=O)Nc2ccc3nccc(N4CCN(C)CC4)c3c2)sc2ccc(Cl)cc12
2. O=S(=O)(Nc1ccc2nccc(N3CCNCC3)c2c1)c1ccc2c(Cl)cccc2c1

output:
1: 6.60; 2: 6.70

###

Consider the following compounds; for each one, report its Ki.
SYSTEM TESTED: 5-hydroxytryptamine receptor 2A (Homo sapiens)
Sequence (P28223 whole entry): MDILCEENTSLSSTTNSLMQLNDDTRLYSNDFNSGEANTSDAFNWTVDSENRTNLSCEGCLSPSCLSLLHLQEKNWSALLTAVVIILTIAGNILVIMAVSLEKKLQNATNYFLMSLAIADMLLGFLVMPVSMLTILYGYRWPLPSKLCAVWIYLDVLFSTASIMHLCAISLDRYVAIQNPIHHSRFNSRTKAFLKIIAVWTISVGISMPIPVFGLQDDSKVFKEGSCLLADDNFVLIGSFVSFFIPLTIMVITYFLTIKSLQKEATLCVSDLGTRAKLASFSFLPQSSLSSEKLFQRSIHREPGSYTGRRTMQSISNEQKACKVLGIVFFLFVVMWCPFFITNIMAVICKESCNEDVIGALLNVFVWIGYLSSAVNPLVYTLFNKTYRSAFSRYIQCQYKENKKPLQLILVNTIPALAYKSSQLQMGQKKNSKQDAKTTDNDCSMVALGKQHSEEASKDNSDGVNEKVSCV
RUN DESCRIPTION: Binding affinity to human cloned 5-hydroxytryptamine 2A receptor in HEK 293 cells using [3H]- ketanserin as radioligand
Numbers only, in nM.

Consider the following illustrative entries.
RECORD SMILES | SYSTEM TESTED | UNIT ABBREVIATION | VALUE
O=S(=O)(Nc1ccc2nccc(N3CCNCC3)c2c1)c1ccc2c(Cl)cccc2c1 | 5-hydroxytryptamine receptor 2A (Homo sapiens) | nM | 1000
Cc1c(S(=O)(=O)Nc2ccc3nccc(N4CCN(C)CC4)c3c2)sc2ccc(Cl)cc12 | 5-hydroxytryptamine receptor 2A (Homo sapiens) | nM | 1000

Now for the compound whose Ki we want.
input: Entry under review: `O=S(=O)(Nc1ccc2nccc(N3CCNCC3)c2c1)c1ccc(-c2ccccc2)cc1` . Reported Ki?
output: 501

###

Consider the following compounds; for each one, report its pKi.
SYSTEM TESTED: 5-hydroxytryptamine receptor 2C (Homo sapiens)
Sequence (P28335 whole entry): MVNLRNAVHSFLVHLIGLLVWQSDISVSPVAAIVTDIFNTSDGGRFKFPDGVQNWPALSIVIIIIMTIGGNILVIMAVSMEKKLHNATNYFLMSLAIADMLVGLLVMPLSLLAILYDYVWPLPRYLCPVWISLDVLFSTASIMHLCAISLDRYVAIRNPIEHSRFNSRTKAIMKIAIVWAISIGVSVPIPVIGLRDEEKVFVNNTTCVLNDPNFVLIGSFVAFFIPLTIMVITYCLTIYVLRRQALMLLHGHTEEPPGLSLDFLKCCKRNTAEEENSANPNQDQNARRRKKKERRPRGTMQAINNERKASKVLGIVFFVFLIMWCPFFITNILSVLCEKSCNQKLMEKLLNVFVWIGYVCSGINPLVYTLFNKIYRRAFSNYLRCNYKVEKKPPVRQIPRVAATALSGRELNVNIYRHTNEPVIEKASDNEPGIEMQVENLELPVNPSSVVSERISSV
RUN DESCRIPTION: Binding affinity to human cloned 5-hydroxytryptamine 2C receptor in HEK 293 cells using [3H]- mesulergine as radioligand
pKi: −log10 of the molar value.

Dear reader, for each entry below, please note its pKi.
1. CC(C)(C)c1ccc(S(=O)(=O)Nc2ccc3nccc(N4CCNCC4)c3c2)cc1
2. Cc1cc(N2CCNCC2)c2cc(NS(=O)(=O)c3sc4ccc(Cl)cc4c3C)ccc2n1
3. Cc1c(S(=O)(=O)Nc2ccc3nccc(N4CCNCC4)c3c2)sc2ccc(Cl)cc12
4. Cc1c(S(=O)(=O)Nc2ccc3nccc(N4CCN(C)CC4)c3c2)sc2ccc(Cl)cc12
5. O=S(=O)(Nc1ccc2nccc(N3CCNCC3)c2c1)c1ccc2c(Cl)cccc2c1
6. Cc1sc2ccc(Cl)cc2c1S(=O)(=O)Nc1ccc2nccc(N3CCNCC3)c2c1

output:
["< 5.70", 5.60, "< 5.60", "< 5.30", "< 5.60", 5.90]

Dear reader, for each entry below, please note its pKi.
1. CCc1c(S(=O)(=O)Nc2ccc3nccc(N4CCNCC4)c3c2)sc2ccc(Cl)cc12
2. Cc1c(S(=O)(=O)Nc2ccc3nccc(N4CCN[C@@H](C)C4)c3c2)sc2ccc(Cl)cc12

output:
5.90
< 5.40
